# Tested on: S. cerevisiae Mot1-301 ts growth rescue, BacTiter-Glo ATP luminescence
# TEST NAME: restored Mot1-301 yeast growth at 38.5C – whole organism, S. cerevisiae, Mot1-301 ts mutant, luminescence, dose retest, SUMOylation pathway inhibitor project, confirmation (AID 463204);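 further: growth at restrictive 38.5 degrees C of Mot1-301 OY566 strain; actives raise luminescence by restoring growth of the ts mutant at high temperature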
Activity calls are given as the source filed them.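 How the source made its calls: active means AC50 no more than ten times the top concentration tested, that is within one log above it; inconclusive means flat curve fit with activity between 30% and 70%, or invalid poor fit; inactive means AC50 beyond ten times the top tested dose.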
// classify into 1.0 for active, 0.0 for inactive

Some solved cases for reference:
CCN1C(=O)N(c2ccc(Cl)cc2)C(C)=CC1(C)C : 0.0
Nc1nnc(COc2ccc(Br)cc2Br)s1 : 0.0
CCOC(=O)CSc1nc2ccccc2c(=O)n1CC(C)C : 0.0
CCN1C(=NCC(C)C)N[C@@H](c2cccc(C(F)(F)F)c2)C(C(=O)OC)=C1C : 0.0
NC(=O)C1CCN(C2CC(=O)N(c3ccc(F)c(Cl)c3)C2=O)CC1 (stereo unspecified) : 1.0
Cc1cccc(N(Cc2ccccc2)C(=O)CSC(C)C(=O)Nc2cc(C)on2)c1 (stereo unspecified) : 0.0

Query: recorded result category for COc1ccccc1NC(=O)c1nn(-c2cccc(C(F)(F)F)c2)ccc1=O in this test
0.0

Called result for O=C(NCc1cccnc1)C1CCN(S(=O)(=O)c2cccnc2)CC1
0.0

Per the assay record, what outcome was assigned to On1c(-c2ccccc2Cl)nc2ncccc21 ?
0.0

Entry CS(=O)(=O)N1CCC(Oc2ccccc2C(=O)N2CCNC(=O)C2)CC1 : call = ?
0.0

Call for entry CCCCCC(=O)NNC1=NCC(Cc2cccc(Cl)c2)S1 (stereo unspecified) :
0.0

###

# System: S. cerevisiae Mot1-301 ts growth rescue, BacTiter-Glo ATP luminescence
# TEST NAME: restored Mot1-301 yeast growth at 38.5C – whole organism, S. cerevisiae, Mot1-301 ts mutant, luminescence, dose retest, SUMOylation pathway inhibitor project, confirmation (AID 463204);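 further: growth at restrictive 38.5 degrees C of Mot1-301 OY566 strain; actives raise luminescence by restoring growth of the ts mutant at high temperature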
The source made the active and inactive calls.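 Rule for the calls: active = AC50 no more than ten times the top concentration tested, that is within one log above it; inconclusive = flat curve fit with activity between 30% and 70%, or invalid poor fit; inactive = AC50 beyond ten times the top tested dose.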
Please reply with one of these outcomes: 1 for active, 0 for inactive

Cc1ccc(S(=O)(=O)NC2CCCCCCC2)cc1 : 1
CCNC(=S)Nc1ccc(C)c(S(=O)(=O)Nc2ccccc2OC)c1 : 0
N#Cc1ccc(C23CC4(C2)[C@H](CN(Cc2ccc(C(F)(F)F)cc2)[C@@H]4c2ccccc2)C3c2ccc(C(F)(F)F)cc2)cc1 (some centres not stated) : 0
Cc1ccc(S(=O)(=O)N(C)CC(=O)O/N=C(\N)c2ccccn2)cc1 : 0
CC1CC(N(C(=O)c2ccccc2Cl)c2ccccc2)c2ccccc2N1 (configuration not stated) : 0
c1ccc(CNc2ncnc3sc4c(c23)CCC4)nc1 : 0
Cc1ccc(N2C(=O)c3cccc4c(N5CCN(C)CC5)ccc(c34)C2=O)c2cccnc12 : 0
CCC(C)c1ccc(S(=O)(=O)N2CCN(C(=O)COc3ccc4c(C)cc(=O)oc4c3)CC2)cc1 (configuration not stated) : 0

What was the test verdict on Cc1nn(CC(N)=O)c(=O)c2ccccc12 ?
0

Look up the recorded call for CC(=Nc1ccccc1)C1=C(O)CC(C)(C)CC1=O in this test.
0

Returns: the outcome recorded for Cc1cc(C)cc(N(CC(=O)Nc2cccc(C)n2)S(=O)(=O)c2c(C)noc2C)c1 in this assay.
0

What classification did Cc1ccccc1-c1nc(CN2CCCC(C(=O)NCc3cccnc3)C2)c(C)o1 (configuration not stated) end up with in this test?
0

What outcome does the record of this test show for COc1ccc(N2CCN(CCCNC(=O)C(=O)c3c(C)[nH]c4ccccc34)CC2)cc1 ?
0

What did this assay record as the result for CCOc1ccc(-c2nnc(SCC(=O)N3CCCC3)o2)cc1 ?
0

Tell me the recorded outcome of this test for CSc1nnc2c3cc(C)ccc3n(Cc3ccccc3)c2n1 .
0

// return assay outcome for CCc1noc(C)c1C(=O)Nc1nc(-c2ccc(F)cc2)c(C)s1
0

Answer briefly: the call reported for CCOc1ccc(NC(=O)CNc2ccc(C)cc2Cl)cc1 in this assay.
0
